Listed here: items and their measured self-cleavage.
B1: Hairpin Ribozyme (parent)
chain: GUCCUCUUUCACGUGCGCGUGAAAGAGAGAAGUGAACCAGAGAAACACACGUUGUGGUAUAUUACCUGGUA

Variants of: B1
ASSAY_PROTOCOL: self-cleavage, relative activity (ratio to wild type); higher = more cleavage; co-transcriptional

>  <MUTATION_LABEL>
C16U G34C

>  <self-cleavage>
1.53

$$$$
>  <MUTATION_LABEL>
A61C G69C

>  <self-cleavage>
0.0992

$$$$
>  <MUTATION_LABEL>
G29A A47U

>  <self-cleavage>
0.107

$$$$
>  <MUTATION_LABEL>
U14G G32A

>  <self-cleavage>
0.191

$$$$
>  <MUTATION_LABEL>
A49G G51A

>  <self-cleavage>
0.651

$$$$
>  <MUTATION_LABEL>
U55C G69C

>  <self-cleavage>
0.183

$$$$
>  <MUTATION_LABEL>
G51U G69C

>  <self-cleavage>
0.519

$$$$
>  <MUTATION_LABEL>
C4G G57C

>  <self-cleavage>
0.143

$$$$
>  <MUTATION_LABEL>
U8G A23U

>  <self-cleavage>
0.738

$$$$
>  <MUTATION_LABEL>
A43C U67C

>  <self-cleavage>
0.112

$$$$
>  <MUTATION_LABEL>
G19A A41C

>  <self-cleavage>
1.13

$$$$
>  <MUTATION_LABEL>
A26C G69C

>  <self-cleavage>
0.212

$$$$
>  <MUTATION_LABEL>
A47U G56U

>  <self-cleavage>
0.148

$$$$
>  <MUTATION_LABEL>
G21A A26G

>  <self-cleavage>
0.658

$$$$
>  <MUTATION_LABEL>
U7G C12A

>  <self-cleavage>
0.732

$$$$
>  <MUTATION_LABEL>
G15A U58A

>  <self-cleavage>
0.533

$$$$
>  <MUTATION_LABEL>
G56A A59C

>  <self-cleavage>
0.169

$$$$
>  <MUTATION_LABEL>
A24U A35G

>  <self-cleavage>
0.751

$$$$
>  <MUTATION_LABEL>
A26G G57C

>  <self-cleavage>
0.103

$$$$
>  <MUTATION_LABEL>
C38G A41G

>  <self-cleavage>
0.618

$$$$
>  <MUTATION_LABEL>
C12A U70G

>  <self-cleavage>
0.673

$$$$
>  <MUTATION_LABEL>
G1A U52C

>  <self-cleavage>
0.181

$$$$
>  <MUTATION_LABEL>
G13C A61G

>  <self-cleavage>
0.164

$$$$
>  <MUTATION_LABEL>
A28C G29C

>  <self-cleavage>
0.204

$$$$
>  <MUTATION_LABEL>
G1C G15U

>  <self-cleavage>
0.24

$$$$
>  <MUTATION_LABEL>
C4G U7C

>  <self-cleavage>
0.15

$$$$
>  <MUTATION_LABEL>
C4U A71G

>  <self-cleavage>
0.426

$$$$
>  <MUTATION_LABEL>
A28G A43U

>  <self-cleavage>
0.123

$$$$
>  <MUTATION_LABEL>
G19A U53C

>  <self-cleavage>
0.854

$$$$
>  <MUTATION_LABEL>
G19C G27A

>  <self-cleavage>
0.361

$$$$
>  <MUTATION_LABEL>
U20C A28U

>  <self-cleavage>
0.393

$$$$
>  <MUTATION_LABEL>
G27A G69A

>  <self-cleavage>
0.155

$$$$
>  <MUTATION_LABEL>
U2C A44G

>  <self-cleavage>
0.275

$$$$
>  <MUTATION_LABEL>
A41C

>  <self-cleavage>
1.21

$$$$
>  <MUTATION_LABEL>
G54A G56A

>  <self-cleavage>
0.0848

$$$$
>  <MUTATION_LABEL>
A49U G68C

>  <self-cleavage>
0.14

$$$$
>  <MUTATION_LABEL>
G19A A61G

>  <self-cleavage>
0.158

$$$$
>  <MUTATION_LABEL>
U2A G21C

>  <self-cleavage>
0.186

$$$$
>  <MUTATION_LABEL>
U8A A47G

>  <self-cleavage>
0.187

$$$$
>  <MUTATION_LABEL>
G17U A24G

>  <self-cleavage>
0.766

$$$$
>  <MUTATION_LABEL>
C48U C65G

>  <self-cleavage>
0.0909

$$$$
>  <MUTATION_LABEL>
C3U G68A

>  <self-cleavage>
0.183

$$$$
>  <MUTATION_LABEL>
U7A U55G

>  <self-cleavage>
0.205

$$$$
>  <MUTATION_LABEL>
A39U C65G

>  <self-cleavage>
0.232

$$$$
>  <MUTATION_LABEL>
U60A A71G

>  <self-cleavage>
0.839

$$$$
>  <MUTATION_LABEL>
G1A U67A

>  <self-cleavage>
0.193

$$$$
